# Test Name: Plasma concentration after intravaginal administration of vaginal ring
# Type: in vivo, Cynomolgus monkeys
# Experimental Conditions: female, cynomolgus monkey, plasma, other: intravaginal (vaginal ring), 240 mg, ring 240 mg free base; Phase 2 Group 1; 10 d; individual animals; read-out: Plasma concentration of Pritelivir free base
Property Measured: concentration at 10 d

{"Compound": "Cc1nc(N(C)C(=O)Cc2ccc(-c3ccccn3)cc2)sc1S(N)(=O)=O [Pritelivir free base]", "Value Observed": "9.46 ng/mL"}

----------
# Test Name: Plasma concentration after intravaginal administration of vaginal ring
# Type: in vivo, Cynomolgus monkeys
# Experimental Conditions: female, cynomolgus monkey, plasma, other: intravaginal (vaginal ring), 240 mg, ring 240 mg free base; Phase 2 Group 1; 3 d; individual animals; read-out: Plasma concentration of Pritelivir free base
Property Measured: concentration at 3 d (ng/mL)

{"Compound": "Cc1nc(N(C)C(=O)Cc2ccc(-c3ccccn3)cc2)sc1S(N)(=O)=O [Pritelivir free base]", "Uom": "ng/mL", "Value Observed": 26.8}
